system: Staphylococcus aureus FDA 209 P
MEASUREMENT_TYPE: MIC

// worked examples, MIC included
# COMPOUND, MIC
measured = [
    ("NC[C@@H]1O[C@H](O[C@H]2[C@@H](O)[C@H](O[C@@H]3[C@@H](O)[C@H](N)C[C@H](N)[C@H]3O[C@H]3O[C@H](CNCCO)[C@@H](O)C[C@H]3N)O[C@@H]2CO)[C@H](N)[C@@H](O)[C@@H]1O [HALVB]", "0.39 µg/mL"),
    ("NC[C@@H]1O[C@H](O[C@H]2[C@@H](O)[C@H](O[C@@H]3[C@@H](O)[C@H](N)C[C@H](N)[C@H]3O[C@H]3O[C@H](CO)[C@@H](O)C[C@H]3N)O[C@@H]2CO)[C@H](N)[C@@H](O)[C@@H]1O [LVB, lividomycin B, reference compound]", "1.56 µg/mL"),
    ("CNC[C@H]1O[C@H](O[C@H]2[C@H](O[C@@H]3O[C@H](CO)[C@@H](O[C@H]4O[C@@H](CN)[C@@H](O)[C@H](O)[C@H]4N)[C@H]3O)[C@@H](O)[C@H](N)C[C@@H]2N)[C@H](N)C[C@@H]1O [MALVB, 6'-deoxy-6'-methylaminolividomycin B]", "< 0.2 µg/mL"),
]

Can you look up MIC on Staphylococcus aureus FDA 209 P for NC[C@@H]1O[C@H](O[C@H]2[C@@H](O)[C@H](O[C@@H]3[C@@H](O)[C@H](N)C[C@H](N)[C@H]3O[C@H]3O[C@H](CN)[C@@H](O)C[C@H]3N)O[C@@H]2CO)[C@H](N)[C@@H](O)[C@@H]1O [ALVB, 6'-amino-6'-deoxylividomycin B] ? < 0.2 µg/mL
